Exercise: for every item that follows, state its recorded IC50.
Assayed Target: UniProt P11712
Sequence (P11712 whole entry): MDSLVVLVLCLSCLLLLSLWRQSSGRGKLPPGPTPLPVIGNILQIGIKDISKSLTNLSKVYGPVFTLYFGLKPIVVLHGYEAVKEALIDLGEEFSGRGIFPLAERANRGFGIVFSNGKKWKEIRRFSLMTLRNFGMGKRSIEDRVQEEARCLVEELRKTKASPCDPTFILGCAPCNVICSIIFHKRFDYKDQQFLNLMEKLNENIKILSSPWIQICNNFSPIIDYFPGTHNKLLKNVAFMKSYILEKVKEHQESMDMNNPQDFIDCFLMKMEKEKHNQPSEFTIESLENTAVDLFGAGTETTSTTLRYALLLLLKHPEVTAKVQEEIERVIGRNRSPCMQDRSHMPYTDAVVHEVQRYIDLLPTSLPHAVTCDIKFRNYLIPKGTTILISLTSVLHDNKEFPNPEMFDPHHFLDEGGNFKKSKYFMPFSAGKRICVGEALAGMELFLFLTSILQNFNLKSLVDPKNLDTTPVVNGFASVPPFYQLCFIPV
Assay Summary: Cytochrome P450 2C9 inhibition
Format: in vitro ADME
Stated Conditions: human liver microsomes, Diclofenac hydroxylation; read-out: CYP2C9 IC50

Answered cases to consult:
1. CS(=O)(=O)c1cc(C#N)ccc1[C@H]1NC(=O)N(c2cccc(C(F)(F)F)c2)C2=C1C(=O)CC2 [Example 10A] = > 50 µM
2. CS(=O)(=O)N1C(=O)N(c2cccc(C(F)(F)F)c2)C2=C(C(=O)CC2)[C@H]1c1ccc(C#N)cc1 = > 50 µM
3. CNC(=O)N1C(=O)N(c2cccc(C(F)(F)F)c2)C2=C(C(=O)CC2)[C@H]1c1ccc(C#N)cc1S(C)(=O)=O = > 50 µM
4. CCNC(=O)N1C(=O)N(c2cccc(C(F)(F)F)c2)C2=C(C(=O)CC2)[C@H]1c1ccc(C#N)cc1S(C)(=O)=O = > 50 µM

Please look at the following compound next.
Request: Report IC50 on UniProt P11712 for this entry: CC(C)(O)CNC(=O)N1C(=O)N(c2cccc(C(F)(F)F)c2)C2=C(C(=O)CC2)[C@H]1c1ccc(C#N)cc1 [Example 41A]
Result: > 50 µM

---

Assay Summary: Drug transport across human Caco-2 cells
Type: in vitro ADME
Stated Conditions: human, Caco-2, pH 7.2, Caco-2 monolayers, apical-to-basal, pH 7.2, 37° C.; read-out: PEAB
Exercise: for every item that follows, state its recorded Papp A→B at 10 µM.
Answers are plain numbers, in ×10⁻⁶ cm/s.

1. CC(C)NC(=O)N1C(=O)N(c2cccc(C(F)F)c2)C2=C(C(=O)CC2)C1c1ccc(C#N)cc1S(C)(=O)=O (centres unmarked) = 9.85
2. N#Cc1ccc([C@H]2NC(=O)N(c3cccc(C(F)(F)F)c3)C3=C2C(=O)CC3)cc1 = 51
3. COC(=O)N1C(=O)N(c2cccc(C(F)(F)F)c2)C2=C(C(=O)CC2)[C@H]1c1ccc(C#N)cc1S(C)(=O)=O = 9.08

// each listed compound needs a value for Papp A→B at 10 µM
1. N#CCN1C(=O)N(c2cccc(C(F)(F)F)c2)C2=C(C(=O)CC2)C1c1ccc(C#N)cc1 (centres unmarked)
2. CCS(=O)(=O)c1cc(C#N)ccc1[C@H]1NC(=O)N(c2cccc(C(F)(F)F)c2)C2=C1C(=O)CC2 [Example 14A]
3. CN1C(=O)N(c2cccc(C(F)(F)F)c2)C2=C(C(=O)CC2)[C@H]1c1ccc(C#N)cc1S(C)(=O)=O

Result:
36.5
10.3
56.7

---

Test system: human hepatocytes
Assay Summary: Metabolic stability with human hepatocytes
Assay type: in vitro ADME
Stated Conditions: human hepatocyte suspension, 1 μM test compound, scaled with well stirred model
Mark y only for CL (predicted human hepatic in vivo blood clearance) values smaller than 3 mL/min/kg; exact matches and larger values are n.

Solved cases below.
1. N#Cc1ccc(C2C3=C(CCC3=O)N(c3cccc(C(F)(F)F)c3)C(=O)N2C(=O)N[C@H]2CCC[C@@H]2O)cc1 (stereo partly drawn) = y
2. CN(C)C(=O)CN1C(=O)N(c2cccc(C(F)(F)F)c2)C2=C(C(=O)CC2)C1c1ccc(C#N)cc1 (stereo not drawn) = n
3. N#Cc1ccc(C2C3=C(CCC3=O)N(c3cccc(C(F)(F)F)c3)C(=O)N2C(=O)NCCCO)cc1 (stereo not drawn) = n

Request: API: query returns whether the compound falls strictly under 3 mL/min/kg in CL (predicted human hepatic in vivo blood clearance). Query: N#Cc1ccc(C2C3=C(CCC3=O)N(c3cccc(C(F)(F)F)c3)C(=O)N2CC(=O)N2CCC2)cc1 (stereo not drawn)
Result: n

Request: API: query returns whether the compound falls strictly under 3 mL/min/kg in CL (predicted human hepatic in vivo blood clearance). Query: CS(=O)(=O)CCNC(=O)N1C(=O)N(c2cccc(C(F)(F)F)c2)C2=C(C(=O)CC2)C1c1ccc(C#N)cc1F (stereo not drawn)
Result: y

Request: API: query returns whether the compound falls strictly under 3 mL/min/kg in CL (predicted human hepatic in vivo blood clearance). Query: "N#Cc1ccc([C@@H]2C3=C(CCC3=O)N(c3cccc(C(F)(F)F)c3)C(=O)N2C(=O)NCCO)cc1"
Result: y

Request: API: query returns whether the compound falls strictly under 3 mL/min/kg in CL (predicted human hepatic in vivo blood clearance). Query: "N#Cc1ccc([C@@H]2C3=C(CCC3=O)N(c3cccc(C(F)(F)F)c3)C(=O)N2C(=O)N[C@H]2COC[C@@H]2O)cc1"
Result: y

Request: API: query returns whether the compound falls strictly under 3 mL/min/kg in CL (predicted human hepatic in vivo blood clearance). Query: "CS(=O)(=O)c1cc(C#N)ccc1[C@@H]1C2=C(CCC2=O)N(c2cccc(C(F)(F)F)c2)C(=O)N1CC#N"
Result: y

---

Exercise: for every item that follows, state its recorded IC50.
Assayed Target: Human neutrophil elastase (Homo sapiens (Human))
Assay Summary: Human Neutrophil Elastase Assay
Assay type: biochemical
Stated Conditions: human neutrophil elastase, substrate MeOSuc-Ala-Ala-Pro-Val-AMC 250 μM, pH 7.5; read-out: IC50
Answers are plain numbers, in nM.

Answered cases to consult:
1) N#Cc1ccc(C2NC(=O)N(c3cccc(C(F)(F)F)c3)C3=C2C(=O)CC3)c(Br)c1 (stereo not shown) = 17.9
2) CS(=O)(=O)N1C(=O)N(c2cccc(C(F)(F)F)c2)C2=C(C(=O)CC2)[C@@H]1c1ccc(C#N)cc1 = 3180
3) CS(=O)(=O)N1C(=O)N(c2cccc(C(F)F)c2)C2=C(C(=O)CC2)C1c1ccc(C#N)cc1 (stereo not shown) = 7.2

Please look at the following compound next.
Request: Indicate the recorded IC50 value for this compound: CN1C(=O)N(c2cccc(C(F)F)c2)C2=C(C(=O)CC2)C1c1ccc(C#N)cc1S(C)(=O)=O (stereo not shown)
Result: 1.9

---

Assayed Target: Human neutrophil elastase (Homo sapiens (Human), UniProt P08246)
Sequence (P08246 30-247): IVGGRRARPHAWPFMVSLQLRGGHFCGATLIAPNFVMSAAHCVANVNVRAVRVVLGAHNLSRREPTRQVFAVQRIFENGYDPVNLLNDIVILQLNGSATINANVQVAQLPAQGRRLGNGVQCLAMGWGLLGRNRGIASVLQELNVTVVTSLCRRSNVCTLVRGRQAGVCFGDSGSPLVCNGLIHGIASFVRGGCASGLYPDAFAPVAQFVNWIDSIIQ
Assay Summary: Human Neutrophil Elastase Assay
Assay type: biochemical
Stated Conditions: human neutrophil elastase, substrate MeOSuc-Ala-Ala-Pro-Val-AMC 250 μM, pH 7.5; read-out: IC50
Readout Kind: IC50 (nM)
Numbers only, in nM.

1. CC1CC2=C(C1=O)C(c1ccc(C#N)cc1)NC(=O)N2c1cccc(C(F)(F)F)c1 (stereo not drawn) = 66

// each listed molecule needs a value for IC50
1. CS(=O)(=O)c1cc(C#N)ccc1C1C2=C(CCC2=O)N(c2ccnc(C(F)(F)F)c2)C(=O)N1S(C)(=O)=O (stereo not drawn)
2. CN1C(=O)N(c2cccc(C(F)F)c2)C2=C(C(=O)CC2)C1c1ccc(C#N)cc1 (stereo not drawn)
3. CCNC(=O)N1C(=O)N(c2ccnc(C(F)(F)F)c2)C2=C(C(=O)CC2)C1c1ccc(C#N)cc1 (racemic)
4. CS(=O)(=O)N1C(=O)N(c2ccnc(C(F)(F)F)c2)C2=C(C(=O)CC2)C1c1ccc(C#N)cc1 (stereo not drawn)

Result:
1. 7
2. 9.4
3. 3.3
4. 34.9

// each listed molecule needs a value for IC50
1. N#Cc1ccc(C2C3=C(CCC3=O)N(c3cccc(C(F)(F)F)c3)C(=O)N2C(N)=O)cc1 (stereo not drawn)
2. CS(=O)(=O)N1C(=O)N(c2cccc(C(F)(F)F)c2)C2=C(C(=O)CC2)C1c1ccc(C#N)cn1 (stereo not drawn)
3. CC(C)NC(=O)N1C(=O)N(c2ccnc(C(F)(F)F)c2)C2=C(C(=O)CC2)C1c1ccc(C#N)cc1 (racemic)
4. CCOC(=O)N1C(=O)N(c2cccc(C(F)(F)F)c2)C2=C(C(=O)CC2)C1c1ccc(C#N)cc1 (stereo not drawn)
5. CC(C)(O)CNC(=O)N1C(=O)N(c2cccc(C(F)(F)F)c2)C2=C(C(=O)CC2)[C@@H]1c1ccc(C#N)cc1 [Example 41B]
6. N#Cc1ccc(C2NC(=O)N(c3ccnc(C(F)(F)F)c3)C3=C2C(=O)CC3)cc1 (stereo not drawn)

Result:
1. 2.2
2. 37.7
3. 2.4
4. 4.2
5. 40.4
6. 110

// each listed molecule needs a value for IC50
1. COC(=O)N1C(=O)N(c2cccc(C(F)(F)F)c2)C2=C(C(=O)CC2)C1c1ccc(C#N)cc1 (stereo not drawn)
2. C[S+]([O-])c1cc(C#N)ccc1C1NC(=O)N(c2cccc(C(F)(F)F)c2)C2=C1C(=O)CC2 (single isomer, unassigned) [Example 17B]
3. CCS(=O)(=O)c1cc(C#N)ccc1C1NC(=O)N(c2cccc(C(F)(F)F)c2)C2=C1C(=O)CC2 (stereo not drawn)
4. CS(=O)(=O)N1C(=O)N(c2cccc(C(F)(F)F)c2)C2=C(C(=O)CC2)C1c1ccc(C#N)cc1Cl (stereo not drawn)
5. CN1C(=O)N(c2cccc(C(F)F)c2)C2=C(C(=O)CC2)[C@H]1c1ccc(C#N)cc1 [Example 26A]
6. CS(=O)(=O)c1cc(C#N)ccc1C1C2=C(CCC2=O)N(c2cccc(C(F)(F)F)c2)C(=O)N1S(C)(=O)=O (stereo not drawn)

Result:
[4, 9.4, 4.7, 9.3, 2.4, 1.9]
